# STUDY TARGET: human SSTR2 (Homo sapiens (Human), UniProt P30874)
# Sequence (P30874 whole entry): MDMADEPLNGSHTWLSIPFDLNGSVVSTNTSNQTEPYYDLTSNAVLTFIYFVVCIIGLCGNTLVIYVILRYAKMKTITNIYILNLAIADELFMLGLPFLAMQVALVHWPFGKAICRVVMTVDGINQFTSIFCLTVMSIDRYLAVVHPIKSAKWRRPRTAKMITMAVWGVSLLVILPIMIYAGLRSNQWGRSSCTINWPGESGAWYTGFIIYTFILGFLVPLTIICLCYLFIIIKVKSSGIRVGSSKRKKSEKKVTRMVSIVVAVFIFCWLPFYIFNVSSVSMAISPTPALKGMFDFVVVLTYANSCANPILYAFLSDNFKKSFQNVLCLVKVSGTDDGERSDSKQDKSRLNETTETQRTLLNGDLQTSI
# ASSAY OVERVIEW: Human SSTR2 intracellular cAMP functional assay for agonists (HTRF)
# Format: cell-based
Task for the reader: assign each of the following compounds its reported EC50.

Task: Given the compound CC[C@H](N)C1CN(c2c(-c3cc(C)cc(F)c3)cnc3ccc(-c4cc(F)cc(C#N)c4O)cc23)C1 , what is its reported EC50?
Result: 10 to 100 nM

Task: Given the compound CO[C@H]1CN(c2c(-c3cc(F)cc(F)c3)cnc3ccc(-c4cccc(C#N)c4O)cc23)CC[C@H]1N , what is its reported EC50?
Result: 10 to 100 nM

Task: Given the compound Cc1cc(F)cc(-c2cnc3ccc(-c4cc(F)cc(C#N)c4O)cc3c2N2CC(CN3CCC(F)(F)C3)C2)c1 , what is its reported EC50?
Result: 100 to 1000 nM

Task: Given the compound N#Cc1cccc(-c2ccc3nnc(-c4cc(F)cc(F)c4)c(N4CCC(N)CC4)c3c2)c1O , what is its reported EC50?
Result: 10 to 100 nM

Task: Given the compound CO/N=C/c1cc(F)cc(-c2cnc3ccc(-c4cccc(C#N)c4O)cc3c2N2CCC(N)CC2)c1 , what is its reported EC50?
Result: 10 to 100 nM

Task: Given the compound NC1CCN(c2c(-c3cc(F)cc(F)c3)cnc3ccc(-c4cncc(F)c4OC4COC4)cc23)CC1 , what is its reported EC50?
Result: 100 to 1000 nM

Task: Given the compound COCC(C)(C)NCC1CN(c2c(-c3cc(C)cc(F)c3)cnc3ccc(-c4cc(F)cc(C#N)c4O)cc23)C1 , what is its reported EC50?
Result: 100 to 1000 nM

Task: Given the compound NC1CCN(c2c(-c3cc(Cl)cc(Cl)c3)cnc3ccccc23)CC1 , what is its reported EC50?
Result: 10 to 100 nM

Task: Given the compound N#Cc1cccc(-c2ccc3ncc(-c4cc(F)cc(F)c4)c(N4CC[C@@H](N)[C@@H](O)C4)c3c2)c1O (relative stereo) , what is its reported EC50?
Result: < 10 nM

Task: Given the compound COCCOCOc1c(C#N)cccc1-c1ccc2ncc(-c3cc(F)cc(F)c3)c(N3CCC(N)CC3)c2c1 , what is its reported EC50?
Result: 10 to 100 nM

Task: Given the compound CS(=O)(=O)Nc1c(F)cc(F)cc1-c1ccc2ncc(-c3cc(F)cc(F)c3)c(N3CCC(N)CC3)c2c1 , what is its reported EC50?
Result: 100 to 1000 nM

Task: Given the compound CCC(CO)NCC1CN(c2c(-c3cc(C)cc(F)c3)cnc3ccc(-c4cc(F)cc(C#N)c4O)cc23)C1 (stereo not drawn) , what is its reported EC50?
Result: 10 to 100 nM

Task: Given the compound COC(=O)[C@@H]1CN(c2c(-c3cc(F)cc(F)c3)cnc3ccc(-c4cccc(C#N)c4O)cc23)CC[C@H]1N (relative stereo) , what is its reported EC50?
Result: 100 to 1000 nM

Task: Given the compound Cc1cc(F)cc(-c2cnc3ccc(-c4cc(F)cc(C#N)c4O)cc3c2N2CC(CNC3CCOC3)C2)c1 (stereo not drawn) , what is its reported EC50?
Result: 10 to 100 nM

Task: Given the compound Cc1cc(F)cc(-c2cnc3ccc(-c4cc(F)cc(C(N)=O)c4)cc3c2N2CC(C)(CN)C2)c1 , what is its reported EC50?
Result: 10 to 100 nM
